assay: Tissue (brain/lung) exposure, IP administration; format: in vivo, mouse; conditions: mouse, brain, ip, 10 mg/kg, 0.5 h, mean, read-out: Unbound B:P ratio (Kp,uu), mean
MEASURED PARAMETER: Kp uu at 0.5 h
Quick one: just the number, no unit, thanks!

Need Kp uu at 0.5 h of NC(=O)C1CCN(c2ncccc2CNCc2cccc3[nH]ccc23)CC1 [Compound 22] , thanks.
0.18

====

assay: Tissue (brain/lung) exposure, IP administration; format: in vivo, mouse; conditions: mouse, lung, ip, 10 mg/kg, 0.5 h, individual mice, read-out: Total Lung Parenchyma Concentration, individual
MEASURED PARAMETER: concentration at 0.5 h (µM)
Express it in µM; write the number only.

Need concentration at 0.5 h of "NC(=O)C1CCN(c2ncccc2CNCc2cccc3[nH]ccc23)CC1" , thanks.
3.83
